Field: TGI. Provide a value for each of the compounds that follow.
System: CCRF-CEM leukemia
ASSAY: NCI tumour cell line growth inhibition, 48 h

Answered cases to consult:
{"columns": ["COMPOUND", "TGI"],
 "data": [
  ["O=C(OC(=O)n1ccc2ccccc21)n1ccc2ccccc21", "> 100 µM"],
  ["C/C1=C\\CC[C@@]2(C)O[C@@H]2[C@H]2OC(=O)[C@@H](CN(C)C)[C@@H]2CC1", "5.61 µM"],
  ["O=C1c2ccccc2C2(Br)C(=O)c3ccccc3C12 (stereo not given)", "> 100 µM"],
  ["CC(=O)n1nc(-c2ccccc2)n(/N=C/c2ccc([N+](=O)[O-])cc2)c1=O", "> 100 µM"],
  ["Cc1nnc(S(=O)(=O)c2ccc(N=Nc3c(N)nc(N)nc3N)cc2)s1", "> 100 µM"],
  ["CC(=O)Oc1cccc2c(/C=N/NC(N)=S)ncc(C)c12", "> 100 µM"]
]}

State the recorded TGI for every item in the following list.
1. C=C(C=O)[C@@H]1C2OC(=O)C(=C)[C@@H]2CC(O)[C@@]1(C)CC (stereo not given in full)
2. Oc1[nH]c2ccccc2c1N=Nc1ccccc1Cl
3. O=S(=O)([O-])c1ccc2c(c1)-c1nc-2nc2[n-]c(nc3nc(nc4[n-]c(n1)c1ccc(S(=O)(=O)[O-])cc41)-c1cc(S(=O)(=O)[O-])ccc1-3)c1ccc(S(=O)(=O)[O-])cc21.[Cu+2].[Na+]
4. CC1CC=CC(O)C1 (stereo not given)
5. CC(C)(Cc1ccccc1)NC1=NCCO1
6. Ic1ccc(Nc2nc3nonc3nc2Nc2ccc(I)cc2)cc1
7. COc1ccc(OC)c(NC(=O)C(=O)NNC(=O)c2sc(NNC(C)=O)nc2C)c1
8. C=C1CC(c2ccc(OCCCN3C(=O)c4ccccc4C3=O)c(OC)c2)OC1=O (stereo not given)

1. 6.44 µM
2. > 100 µM
3. > 39.5 µM
4. > 100 µM
5. > 100 µM
6. > 100 µM
7. 45.2 µM
8. 3.79 µM

State the recorded TGI for every item in the following list.
1. CC(=O)O.CC(=O)O.CC(=O)O.CC(=O)O.CC(=O)O.CC(=O)O.O.[Ti].[Ti]
2. CCOC(=O)C1=CC(C)(C(=O)OCC)Nc2c(nc(OC)n(C)c2=O)N1 (stereo not given)

> 100 µM
> 10 µM

State the recorded TGI for every item in the following list.
1. C=C1C[C@@H]2O[C@H]3[C@H]4[C@@H](C[C@@H](C)[C@@H](OC(C)=O)[C@H]42)[C@@H](C)CO[C@@]3(C)[C@H](OC(C)=O)C[C@H]1O
2. CC1=CC(/C=C(\C)CCCc2ccoc2)C2(OC(=O)C(C)=C2O)[C@H]2C1CC[C@@H]2C (stereo not given in full)
3. Cc1cc(=O)[nH]c(NN2C(Cl)C(=O)C2c2cccc(O)c2)n1 (stereo not given)

["49.5 µM", "58.6 µM", "> 100 µM"]

TGI recorded for this compound, CN(C)Cc1cc(C(=O)/C=C/c2ccc(Cl)cc2)cc(CN(C)C)c1O , is 94.2 µM
